Biological target: motor domain of human KSP (Eg 5, KNSL1) (Homo sapiens (Human), UniProt P52732)
Sequence (P52732 18-359): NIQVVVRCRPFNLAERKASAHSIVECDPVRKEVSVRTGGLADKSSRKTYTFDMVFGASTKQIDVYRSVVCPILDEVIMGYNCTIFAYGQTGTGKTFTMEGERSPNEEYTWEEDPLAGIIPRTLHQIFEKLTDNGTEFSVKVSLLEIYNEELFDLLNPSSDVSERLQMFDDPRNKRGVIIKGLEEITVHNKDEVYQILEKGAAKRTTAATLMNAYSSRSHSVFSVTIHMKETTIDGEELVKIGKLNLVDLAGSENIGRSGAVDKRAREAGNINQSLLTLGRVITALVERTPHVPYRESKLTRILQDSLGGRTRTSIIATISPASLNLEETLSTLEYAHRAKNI
Assay: Assay for determining KSP activity (microtubule-stimulated ATPase, Biomol Green phosphate detection)
Format: biochemical
Conditions: KSP motor domain 3 nM, bovine brain microtubules 50 μg/mL, 2 hours at RT, absorbance at 650 nm; read-out: KSP IC50
pIC50: −log10 of the molar value.
attribute-measured: pIC50

Previously resolved entries follow.
* COC(C)(C)[C@H](c1nc(-c2cc(F)ccc2F)nn1Cc1cccc(F)c1)N(C[C@@H]1CNC[C@@H]1F)C(=O)[C@@H]1CCCO1 [Compound 10] | 9.05
* COC(C)(C)[C@H](c1nc(-c2cc(F)ccc2F)nn1Cc1cccc(F)c1)N(CC[C@H](N)CF)C(=O)[C@H](C)O [Compound 8] | 8.83
* COC(C)(C)[C@H](c1nc(-c2cc(F)ccc2F)nn1Cc1ccccc1)N(CC[C@H](N)CF)C(=O)[C@@H]1CCCO1 [Compound 11] | 8.85
* CCN1C[C@@H](CN(C(=O)[C@@H]2CCCO2)[C@@H](c2nc(-c3cc(F)ccc3F)nn2Cc2cccc(F)c2)C(C)(C)OC)[C@@H](F)C1 [Compound 9] | 7.31
* COC(C)(C)[C@H](c1nc(-c2cc(F)ccc2F)nn1Cc1ccccc1)N(C[C@@H]1CNC[C@@H]1F)C(=O)[C@@H]1CCCO1 [Compound 13] | 9.16

1 = COC(C)(C)[C@H](c1nc(-c2cc(F)ccc2F)nn1Cc1cccc(F)c1)N(CC[C@H](N)CF)C(=O)[C@@H]1CCCO1 [Compound 7]
2 = COC(C)(C)[C@H](c1nc(-c2cc(F)ccc2F)nn1Cc1ccccc1)N(CC[C@H](N)CF)C(=O)[C@H](C)O [Compound 14]
INPUT: Of the pair 1 and 2 , name the member with the lesser recorded pIC50. Give the label under which the chosen entry appears.
OUTPUT: 2

----------
Biological target: motor domain of human KSP (Eg 5, KNSL1) (Homo sapiens (Human), UniProt P52732)
Experiment: Assay for determining KSP activity (microtubule-stimulated ATPase, Biomol Green phosphate detection)
Type: biochemical
Conditions: KSP motor domain 3 nM, bovine brain microtubules 50 μg/mL, 2 hours at RT, absorbance at 650 nm; read-out: Biological Activity (IC50)
pIC50: −log10 of the molar value.
attribute-measured: pIC50

• CC(C)(C)[C@H](c1nc(-c2cc(F)ccc2F)nn1Cc1ccccc1)N(CC1CNC[C@@H]1F)C(=O)C1CCCO1 (stereo in doubt) = 9.02
• C[C@@H]1CN(C(=O)N(C[C@@H]2CNC[C@@H]2F)[C@@H](c2nc(-c3cc(F)ccc3F)nn2Cc2ccccc2)C(C)(C)C)C[C@H](C)O1 (stereo in doubt) = 9.08
• C[C@H](O)C(=O)N(CC1CNC[C@@H]1F)[C@@H](c1nc(-c2cc(F)ccc2F)nn1Cc1ccccc1)C(C)(C)C (stereo in doubt) = 9.22
• C[C@H](O)C(=O)N(CC1CNC[C@@H]1F)[C@@H](c1nc(-c2cc(F)ccc2F)nn1Cc1cccc(F)c1)C(C)(C)C (stereo in doubt) = 9.08

A = CC(C)(C)C(c1nc(-c2cc(F)ccc2F)nn1Cc1cccc(F)c1)N(CC1CNC[C@@H]1F)C(=O)C1CCCO1 (stereo in doubt)
B = C[C@@H]1CN(C(=O)N(C[C@@H]2CNC[C@@H]2F)[C@@H](c2nc(-c3cc(F)ccc3F)nn2Cc2cccc(F)c2)C(C)(C)C)C[C@H](C)O1 (stereo in doubt)
INPUT: Compare the recorded pIC50 of A and B ; state which is larger. Write the label of whichever entry you select.
OUTPUT: B
